target: UniProt:P03372; experiment: Induction of ERalpha degradation in human MCF7 cells assessed as decrease in ER-alpha level incubated for 18 to 24 hrs by Alexa fluor 488/Hoechst staining based immunofluorescence imaging analysis; type: cell-based
Sequence (P03372 whole entry): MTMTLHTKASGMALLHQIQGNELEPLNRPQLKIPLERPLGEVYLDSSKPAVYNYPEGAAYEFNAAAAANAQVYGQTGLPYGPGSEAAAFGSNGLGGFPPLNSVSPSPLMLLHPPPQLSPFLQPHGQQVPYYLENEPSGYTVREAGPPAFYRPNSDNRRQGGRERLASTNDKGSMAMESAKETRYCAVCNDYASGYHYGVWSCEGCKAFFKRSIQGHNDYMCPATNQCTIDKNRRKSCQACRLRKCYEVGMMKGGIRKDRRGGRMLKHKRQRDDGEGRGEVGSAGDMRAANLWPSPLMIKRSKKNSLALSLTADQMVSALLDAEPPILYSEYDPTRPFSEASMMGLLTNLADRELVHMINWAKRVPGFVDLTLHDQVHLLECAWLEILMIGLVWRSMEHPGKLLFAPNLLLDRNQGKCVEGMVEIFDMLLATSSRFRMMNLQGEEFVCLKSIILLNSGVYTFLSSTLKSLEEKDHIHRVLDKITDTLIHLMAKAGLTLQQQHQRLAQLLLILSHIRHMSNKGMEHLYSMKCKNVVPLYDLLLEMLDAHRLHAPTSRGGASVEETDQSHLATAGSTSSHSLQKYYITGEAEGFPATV
Item-by-item account of pIC50
// pIC50 is dimensionless: -log10 of concentration (M)

Guide cases for pIC50, answers given:
Specify reported pIC50 for the compound shown: `CC(C)CN1[C@H](c2ccc(OCCN3CC(CF)C3)cn2)c2ccc3[nH]ncc3c2C[C@H]1C` 9.40

Tell me its pIC50 given `CC(C)CN1[C@H](c2c(F)cc(OCCN3CC(CF)C3)cc2F)c2ccc3[nH]ncc3c2C[C@H]1C` as the entry. 9.70

Input `C[C@@H]1Cc2c(ccc3[nH]ncc23)[C@@H](c2ccc(N(C)[C@H]3CCN(CCCF)C3)cn2)N1CC(F)(F)F` , output reported pIC50. 9.10

Continuing:
Query pIC50 for `C[C@@H]1Cc2c(ccc3[nH]ncc23)[C@@H](c2ccc(NCCNCCCF)cn2)N1CC(F)(F)F` 9.20

Note pIC50 for the compound shown: `CC1(C)Cc2c(ccc3[nH]ncc23)[C@@H](c2ccc(NC3CN(CCCF)C3)cn2)N1CC(F)F` 9.10

Give the measured pIC50 for `CC(C)CN1[C@H](c2ccc(OCCN3CC(CF)C3)cc2)c2ccc3[nH]ncc3c2C[C@H]1C` 9.80

Input `C[C@@H]1Cc2c(ccc3[nH]ncc23)[C@@H](c2ccc(NC3CN(CCCF)C3)cn2)N1CC(F)(F)CO` , output reported pIC50. 9.30

Retrieve pIC50 measured for `COc1cc(OCCN2CC(CF)C2)ccc1[C@@H]1c2ccc3[nH]ncc3c2C[C@@H](C)N1CC1(F)COC1` and print it. 9.60
